experiment: chemical genetic growth profiling, strain panel (AID 1159580);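 note: tested at 20 µM; growth read once vehicle control cultures reached saturation at 30 °C; 1 = growth at the plate median or of vehicle wells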; conditions: S. cerevisiae deletion strains, growth OD, locus YBR231C, strain swc5, active compounds read low
The whole screen tested about 5,500 compounds, of which about 2,000 (36%) were called active. Not shown: some 18% with an inconclusive outcome. This is one part of the list.
Please note: normalized growth exactly at 1 is label 0. Only values below 1 get label 1.

Task item: # strict comparison: is reported normalized growth < 1? input = CC12CCC3C(CC=C4CC(O)CCC43C)C1CCC2=O (stereo unspecified)
Reply: label 1

Task item: For this molecule, is normalized growth lower than 1? CC(=O)O[C@H]1CC[C@@]2(C)C(=CCC3C2CC[C@]2(C)C(=O)CCC32)C1 (stereo partly specified)
Reply: label 0

Task item: hey, is normalized growth for "O=C(/C=C/c1ccc(O)c(O)c1)O[C@@H]1C[C@](O)(C(=O)O)C[C@@H](O)[C@H]1O" lower than 1 or not?
Reply: label 1

Task item: Lab note: confirm whether the reported normalized growth for this molecule is below 1, equality not counting. molecule: CC[C@@H](C(=O)[C@@H](C)[C@@H](O)[C@H](C)[C@@H]1O[C@@H]([C@@H](CC)C(=O)O)CC[C@@H]1C)[C@H]1OC2(C=C[C@@H](O)[C@]3(CC[C@@](C)([C@H]4CC[C@](O)(CC)[C@H](C)O4)O3)O2)[C@H](C)C[C@@H]1C (stereo partly specified)
Reply: label 1

* * *

Can you tell me normalized growth for the items I'm about to list?
experiment: chemical genetic growth profiling, strain panel (AID 1159580);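 note: tested at 20 µM; growth read once vehicle control cultures reached saturation at 30 °C; 1 = growth at the plate median or of vehicle wells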; settings: S. cerevisiae deletion strains, growth OD, locus YNL224C, strain SQS1, active compounds read low
In all, about 5,500 compounds went through this assay and about 2,000 (36%) were called active. Inconclusive results (about 18%) are left out. This is one part of the list.
// return a plain number; no unit text

Task item: Could you tell me which normalized growth is on file for "OC[C@H]1O[C@@H](n2cnc3cncnc32)[C@H](O)[C@@H]1O" ?
Reply: 1.02

Task item: Need normalized growth of "NCCCCCCCCCCN" , thanks.
Reply: 1

Task item: State the recorded normalized growth for this entry: COc1ccccc1OCC(O)CN1CCN(CC(=O)Nc2c(C)cccc2C)CC1 (centres undefined)
Reply: 1.01

Task item: What does the data say about its normalized growth? Entry: "[Li+]"
Reply: 1

* * *

assay: chemical genetic growth profiling, strain panel (AID 1159580);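 note: tested at 20 µM; growth read once vehicle control cultures reached saturation at 30 °C; 1 = growth at the plate median or of vehicle wells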; details: S. cerevisiae deletion strains, growth OD, locus YML016C, strain PPZ1, active compounds read low
Hit rate of the full screen: of about 5,500 compounds, about 2,000 (36%) were called active. Not shown: some 18% with an inconclusive outcome. The list shows a part of the results.
Task for the reader: assign each of the following compounds its reported normalized growth.
Reply with the value as a number alone.

Task item: I am curious: what normalized growth value has been reported for CC12CCCC(O)(C1)C1CC(C)(C)C1CC2 (stereo unspecified) ?
Reply: 1.01

Task item: # input compound: "CC1=C(/C=C/C(C)=C/C=C/C(C)=C/C(=O)O)C(C)(C)CCC1" ; wanted: its normalized growth
Reply: 1.01

Task item: # query: normalized growth of entry "O=C(O)CNCP(=O)(O)O"
Reply: 1

Task item: Entry "CC1=C(/C=C/C(C)=C/C=C/C(C)=C/CO)C(C)(C)CCC1" : reported normalized growth = ?
Reply: 0.998

Task item: # input compound: CC1(C)CC2C1CCC1(C)OC1CCC2(C)O (stereo unspecified) ; wanted: its normalized growth
Reply: 1.01

Task item: Sample "O=C1O[C@@H](CO)[C@H](O)[C@@H](O)[C@@H]1O" — what was its normalized growth?
Reply: 1.01

Task item: Name the reported normalized growth value associated with the compound "COc1ccccc1N1CCNCC1"
Reply: 1.01

Task item: Field request: normalized growth | item: "O=C(O)c1cc(O)c(O)c(O)c1"
Reply: 1.03

Task item: Query: normalized growth; subject: "CC1=C(/C=C/C(C)=C/C=C/C(C)=C\C(=O)O)C(C)(C)CCC1"
Reply: 1

Task item: Endpoint output: normalized growth of Nc1nc2c(c(=O)[nH]1)N(C=O)C(CNc1ccc(C(=O)N[C@@H](CCC(=O)O)C(=O)O)cc1)CN2 (stereo partly specified) . Value?
Reply: 0.992

Task item: What value of normalized growth has been reported for the following compound? CC[C@@]1(C2O[C@@H](C3O[C@@](O)(CC)[C@H](C)C[C@@H]3C)C[C@@H]2C)CC[C@H]([C@]2(C)CCC3(C[C@H](O)[C@@H](C)[C@@H]([C@H](C)[C@@H](OC)[C@H](C)C(=O)O)O3)O2)O1 (stereo partly specified)
Reply: 0.996

Task item: Entry CN(Cc1cnc2nc(N)nc(N)c2n1)c1ccc(C(=O)NC(CCC(=O)O)C(=O)O)cc1 (stereo unspecified) has what normalized growth?
Reply: 1.01

Task item: So what does the record say about normalized growth for "NC(=O)N/N=C\c1ccc([N+](=O)[O-])o1" ?
Reply: 1

Task item: Can you share its normalized growth? I mean this compound: "CCn1cc(C(=O)O)c(=O)c2cnc(N3CCCC3)nc21"
Reply: 0.999

Task item: Item under review: "CC(=O)OC/C=C(C)/C=C/C=C(C)/C=C/C1=C(C)CCCC1(C)C" . Reported normalized growth?
Reply: 1.01

Task item: Entry "O=C1N=C(O)CN1/N=C\c1ccc(-c2ccc([N+](=O)[O-])cc2)o1" has what normalized growth?
Reply: 1.02

Task item: # normalized growth lookup, item "O=C(O)P(=O)(O)O"
Reply: 0.984

Task item: For the compound CC1(C)CC2C1CCC1(C)OC2(C)CCC1O (stereo unspecified) , what normalized growth is on record?
Reply: 1.01

Task item: Endpoint output: normalized growth of "O=C1OCCN1/N=C\c1ccc([N+](=O)[O-])o1" . Value?
Reply: 0.987

Task item: So what's the measured normalized growth for this one? "CC1=C(/C=C/C(C)=C/C=C/C(C)=C/C=C/C=C(C)/C=C/C=C(C)/C=C/C2=C(C)CCCC2(C)C)C(C)(C)CCC1"
Reply: 1

Task item: // lookup normalized growth for C[C@@H]1CC2C3CCC4=CC(=O)C=C[C@]4(C)[C@@]3(F)[C@@H](O)C[C@]2(C)[C@@]1(O)C(=O)COP(=O)(O)O (stereo partly specified)
Reply: 1
